Values were extracted from PubChem BioAssay (NCI).

Test system: OVCAR-4 ovarian
PROTOCOL SUMMARY: NCI-60 one-dose screen, 48 h
ASSAY CONTEXT: 10 µM unless noted
Compounds without any hit were thinned out: in the full panel of roughly 83,000, 20% have a hit. The source made the active and inactive calls. Rule for the calls: active = growth percent below 10; inactive = the rest.
Your reply should match one of these outcome classes. y = active, n = inactive

Previously resolved entries follow.
[[record]]
compound = "Cc1csc(-c2ccc3c(c2)COC3(CCCN(C)C)c2ccc(F)cc2)c1 (stereo not given)"
study_system = "OVCAR-4 ovarian"
group_label = "n"

[[record]]
compound = "COc1cnc2c(c1)C(=O)c1c-2n(CCCNCCN2CCOCC2)c(=O)c2cc([N+](=O)[O-])ccc12"
study_system = "OVCAR-4 ovarian"
group_label = "y"

[[record]]
compound = "COC(=O)c1cc(=O)nc(N/N=C/c2ccc(C)cc2)s1"
study_system = "OVCAR-4 ovarian"
group_label = "n"

[[record]]
compound = "CCN(CC)CCCCCCNc1ccnc2cc(Cl)ccc12"
study_system = "OVCAR-4 ovarian"
group_label = "n"

[[record]]
compound = "C#Cc1cccc(NC(=O)C2CCCN(C(=O)CCl)C2)c1 (stereo not given)"
study_system = "OVCAR-4 ovarian"
group_label = "n"

[[record]]
compound = "COc1cccc(-c2nn(-c3ccccc3)cc2-c2ccnc(NCCCNS(=O)(=O)c3cccc(F)c3)c2)c1"
study_system = "OVCAR-4 ovarian"
group_label = "n"

[[record]]
compound = "Cc1ccccc1-c1nc(C(Cl)Cl)nc2cc(-c3ccccc3)nn12"
study_system = "OVCAR-4 ovarian"
group_label = "n"

[[record]]
compound = "COC(=O)C(Cc1ccccc1)n1cc(COc2nc(Cl)nc(Nc3ccc(Cl)cc3)n2)nn1 (stereo not given)"
study_system = "OVCAR-4 ovarian"
group_label = "n"


Ask | For N#C/C(=C\c1ccc(-c2ccc(Br)cc2)o1)c1nc(-c2ccco2)cs1 , which call appears in the assay record?
Reply | y

Ask | For COc1cc2nc(Cl)nc(Nc3cccc(C(=O)/C=C/c4ccc(Cl)cc4)c3)c2cc1OC , which call appears in the assay record?
Reply | n

###

Tested on: SF-295 CNS
PROTOCOL SUMMARY: NCI-60 one-dose screen, 48 h
ASSAY CONTEXT: 10 µM unless noted
This is part of a sample that, as a whole, favours compounds with a hit. Of some 83,000 tested, about 20% had one in any assay. Activity calls are given as the source filed them. How the source made its calls: active means growth percent below 10; inactive means the rest.
Your reply should match one of these outcome classes. active, inactive

[[record]]
compound = "COc1ccc(C2=NN(c3nc(-c4ccc(OC)cc4)c(C#N)c(=O)n3C)C(=O)CC2)cc1"
group_label = "inactive"

[[record]]
compound = "Cn1c(/C(C#N)=C/c2ccc3ccccc3c2)cc2ccccc21"
group_label = "active"

[[record]]
compound = "COc1cc(-c2c(C#N)c(-c3cccs3)nc3c2c(-c2ccccc2)nn3-c2ccccc2)ccc1O"
group_label = "inactive"

[[record]]
compound = "CCN1CCN(C(=O)[C@]23CCC(C)(C)C[C@H]2C2=CC[C@@H]4[C@@]5(C)CC/C(=N/O)C(C)(C)[C@@H]5CC[C@@]4(C)[C@]2(C)CC3)CC1"
group_label = "inactive"

[[record]]
compound = "Oc1ccc(Nc2ccccc2)cc1"
group_label = "inactive"

[[record]]
compound = "c1cc(N2CCCC2)c2nc(-c3[nH]ncc3Nc3ncnc4[nH]ccc34)[nH]c2c1"
group_label = "active"

[[record]]
compound = "Cc1cc(N(CCCNc2ccnc3cc(Cl)ccc23)Cc2ccco2)nc(Cl)n1"
group_label = "inactive"

[[record]]
compound = "O=C1C(=O)N(CCCCn2cc(-c3ccccc3)nn2)c2ccccc21"
group_label = "inactive"


Ask | For Cc1ccc(NC2CC(=O)N(c3c(C)cc(C)cc3C)C2=O)c(C)c1 (stereo unspecified) , which call appears in the assay record?
Reply | inactive

Ask | For O=C1c2cccc3cccc(c23)C(=O)N1CC#Cc1ccc2c3c(cccc13)C(=O)N(CCO)C2=O , which call appears in the assay record?
Reply | inactive

Ask | For COc1cc2nc(Cl)nc(Nc3cccc(C(=O)/C=C/c4ccc(Br)cc4)c3)c2cc1OC , which call appears in the assay record?
Reply | inactive

Ask | For N#Cc1c(-c2ccco2)nc2c(c(-c3ccccc3)nn2-c2ccccc2)c1-c1ccc(O)cc1 , which call appears in the assay record?
Reply | inactive

Ask | For COc1ccc2[nH]c(-c3ccc(Cl)cc3)cc(=O)c2c1 , which call appears in the assay record?
Reply | inactive

Ask | For C=C(C)[C@@H]1CC[C@]2(C=NCCCNCCCCNCCCN)CC[C@]3(C)[C@H](CC[C@@H]4[C@@]5(C)CCCNC(C)(C)[C@@H]5CC[C@]43C)[C@@H]12 , which call appears in the assay record?
Reply | inactive

Ask | For C=C1C(=O)O[C@H]2[C@H]1CC/C(COC(=O)NCc1c[nH]c3ccccc13)=C\CC[C@@]1(C)O[C@@H]21 , which call appears in the assay record?
Reply | inactive

Ask | For Fc1ccc2c(c1)c(-c1nc(-c3c[nH]c4ncccc34)cs1)cn2CCCN1CCCCC1 , which call appears in the assay record?
Reply | inactive

Ask | For COc1c(N)c2c(c([N+](=O)[O-])c1OC)C(=O)OC2 , which call appears in the assay record?
Reply | inactive

Ask | For C=C1C(=O)O[C@H]2[C@H]1CC/C(COC(=O)NCc1cc3ccccc3[nH]1)=C\CC[C@@]1(C)O[C@@H]21 , which call appears in the assay record?
Reply | inactive

Ask | For COc1ccc(-c2cc(-c3cccs3)n(N=O)c(=O)c2C#N)cc1 , which call appears in the assay record?
Reply | inactive

Ask | For Cn1c2c(Cl)c(Cl)ccc2c2c(C#N)c[nH]c(=O)c21 , which call appears in the assay record?
Reply | inactive

Ask | For COc1cnc2c(c1)C(=O)c1c-2n(CCCNC2=NCCS2)c(=O)c2cc([N+](=O)[O-])ccc12 , which call appears in the assay record?
Reply | inactive

Ask | For CSc1ccc(N(C)c2nc(C)nc3c2CCC3)cc1 , which call appears in the assay record?
Reply | inactive

Ask | For N#CCCCCCn1c2ccccc2c2c3[nH]c(=O)[nH]c(=O)c3c3c4ccccc4n(CCCCCC#N)c3c21 , which call appears in the assay record?
Reply | inactive

Ask | For Nc1c(C(=O)Nc2c(Cl)cccc2Cl)sc2nc3c(cc12)C(=O)CCC3 , which call appears in the assay record?
Reply | inactive

Ask | For COc1ccc2c(c1)c(-c1nc(-c3c[nH]c4ncccc34)cs1)cn2CCN , which call appears in the assay record?
Reply | inactive
